// protein stability index lookup, one value per entry
B1: EPB41L3 (parent)
chain: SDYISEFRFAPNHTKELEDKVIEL

Variants of: B1
Assay: protein stability index of a GFP-peptide fusion (GPS, HEK-293T) (PSI 1-6); higher = more stable;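 note: lentivirally expressed fusions sorted by FACS into six bins by GFP to DsRed ratio, PSI derived from sequencing read proportions per bin multiplied by bin number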
Details: c terminus: a fixed tail appended
endpoint-label: protein stability index

input-sequence: SDYISEFRFEPNHTKELEDKVIEL
measured-result: 4.21

input-sequence: SDYISEFRFAPNHTMELEDKVIEL
measured-result: 2.25

input-sequence: SDYISEFRFAPNHTWELEDKVIEL
measured-result: 1.77

input-sequence: SDYISENRFAPNHTKELEDKVIEL
measured-result: 4.96

input-sequence: SDYISEFRFAPNHQKELEDKVIEL
measured-result: 2.55

input-sequence: SDYISEFRMAPNHTKELEDKVIEL
measured-result: 4.03

input-sequence: SDYISEFRFAPNHTKELWDKVIEL
measured-result: 1.56

input-sequence: SDYISEFRFAPNHTKELEDMVIEL
measured-result: 1.8

input-sequence: SDYISEFEFAPNHTKELEDKVIEL
measured-result: 4.47

input-sequence: SDYISEFRFWPNHTKELEDKVIEL
measured-result: 2.96

input-sequence: EDYISEFRFAPNHTKELEDKVIEL
measured-result: 2.15

input-sequence: SDYISEFRFAPNHTKELEDKVIEP
measured-result: 2.31

input-sequence: SDYISCFRFAPNHTKELEDKVIEL
measured-result: 1.92

input-sequence: SDYISEFRFAPNHTQELEDKVIEL
measured-result: 2.34

input-sequence: SDYISEFRFAPNHTKELEDKVIEA
measured-result: 2.42

input-sequence: SDYISEFRFAPNHTKECEDKVIEL
measured-result: 2.05

input-sequence: SDYISEFRFAPNHPKELEDKVIEL
measured-result: 1.37

input-sequence: SDYISEFRFAPNHTKELEDKVFEL
measured-result: 1.74

input-sequence: SDYISEFRFAPNHTKELEDKFIEL
measured-result: 3.22

input-sequence: SDYISEFRFAPNHTKELEFKVIEL
measured-result: 3.65

input-sequence: SDYISEFRFAPNHTIELEDKVIEL
measured-result: 1.9

input-sequence: SDPISEFRFAPNHTKELEDKVIEL
measured-result: 2.4
